Note to self: these compounds have IC50 reported for Cytochrome P450 3A4 (Homo sapiens) in various publications.

Reference set, count: 6
CC(C)Oc1ccc(S(=O)(=O)N2C[C@@H](C)[C@@H](n3nc(CC(=O)O)c4ccc(F)cc43)C2)cn1 :: > 20 µM
CC1(C)CCNc2cc(NC(=O)c3cccnc3NCc3ccnc4[nH]ccc34)ccc21 :: > 20 µM
C[C@]1(c2cc(NC(=O)c3ccc(Cl)cn3)ccc2F)N=C(N)OCC1(F)F :: > 10 µM
C[C@H]1SC(N)=N[C@](C)(c2cccc(NC(=O)c3ccc(F)cn3)c2)[C@H]1F :: ≥ 20 µM
COCCNc1nc(N2CCC(F)(F)CC2)nc2cc(OCCCN3CCCC3)c(OC)cc12 :: > 100 µM
C=CC(=O)N1CCN(c2c(C#N)c(N3CC(N(C)C)C3)nc3c(F)c(-c4ccc(F)c5sc(N)nc45)c(Cl)cc23)CC1 :: > 10 µM

Request: IC50, test system Cytochrome P450 3A4 (Homo sapiens), entry `Cc1cc(Nc2ncc(Cl)c(Nc3cn(C)nc3S(=O)(=O)C(C)C)n2)c(OC2CC2)cc1C1CCN(S(C)(=O)=O)CC1`
> 10 µM

Request: IC50, test system Cytochrome P450 3A4 (Homo sapiens), entry CC1(c2cccc(-c3cc(Cl)cc(Cl)c3)c2)COCC(N)=N1 (stereo not drawn)
> 50 µM

Request: IC50, test system Cytochrome P450 3A4 (Homo sapiens), entry `C[C@]1(c2cc(NC(=O)c3ccc(F)cn3)ccc2F)N=C(N)O[C@H](CF)[C@@H]1OCC(F)(F)F`
≥ 20 µM

###

Note to self: these compounds have pIC50 reported for Cytochrome P450 3A4 (Homo sapiens, UniProt P08684) in various publications.
pIC50: −log10 of the molar value.
Class condition met: pIC50 at least 6. Class condition not met: pIC50 below 6.

The examples below pair each entry with its known result.
O=C(Cc1ccc(B2C=CC=CN2)cc1)Nc1cc(C2CC2)[nH]n1 :: condition not met
CC(=O)N1CCC(c2cc(OC3CC3)c(Nc3ncc(Cl)c(Nc4cn(C)nc4S(=O)(=O)C(C)C)n3)cc2C)CC1 :: condition not met
CCCCOCCOc1ccc(-c2ccc(OC)c(/C=C/C(=O)Nc3ccc([S@+]([O-])Cc4c(C)ncn4CC)cc3)c2)cc1 :: condition not met
C[C@@H](c1ccccc1-c1ccc(F)cc1)n1cncc1C(=O)N1CCC(N2CCCC(C)(O)C2)CC1 (stereo partly drawn) :: condition met
CC[C@H]1SC(N)=N[C@](C)(c2cc(NC(=O)c3cnc(OCF)cn3)ccc2F)[C@H]1F :: condition not met

In the following, a different compound is considered.
pIC50 >= 6 for `COc1cc2c(NC3CCS(=O)(=O)CC3)nc(N3CCCC3)nc2cc1OCCCN1CCCC1` ?
condition not met

###

Note to self: these molecules have IC50 reported for Cytochrome P450 3A4 (Homo sapiens, UniProt P08684) in various publications.

Reference set, count: 8
COC(C)C(=O)Nc1cccc(NC(C(N)=O)c2ccccc2)c1 (stereo not drawn) :: > 50 µM
C[C@@H](c1ccc(-c2cnc(C(=O)NC(C)(C)C)nc2)cc1)N1CC[C@](CC(C)(C)O)(c2ccccc2)OC1=O :: 45.3 µM
CS(=O)(=O)CC(=O)Nc1c(-c2ccc(Cl)cn2)nn2c1C(=O)N[C@]1(CCOc3cc(F)cc(F)c31)C2 :: > 20 µM
O=C1COc2cc(NCc3cccc(C(=O)Nc4cccnc4)c3)ccc2N1 :: 6.6 µM
Cc1cc(OC[C@@H]2CN(C)c3ccccc3O2)cc(C)c1C(=O)Nc1cc(C2(C(=O)O)CC2)ccc1C(F)(F)F :: ≥ 30 µM
CC[C@H]1SC(N)=N[C@](C)(c2cc(NC(=O)c3ccc(C#N)cn3)ccc2F)[C@H]1F :: ≥ 10 µM
C[C@@H](c1ccc(-c2ccc(C(=O)NC3CC3)cn2)cc1)N1CC[C@](CC(C)(C)O)(c2ccccc2)OC1=O :: > 50 µM
C[C@H]1OC(=O)[C@]2(c3cc(C(C)(C)C)n(C)n3)CC(F)(F)[C@@H](C)[C@H](/C=C/c3ccc(-c4ccccc4C#N)cn3)[C@H]12 :: ≥ 50 µM

Turning now to a further molecule:
Request: IC50, test system Cytochrome P450 3A4 (Homo sapiens, UniProt P08684), entry `COc1ccc2[nH]cc(CCNC(=O)c3ccc(-c4ccccc4)cc3)c2c1`
> 20 µM
